The reported numbers originate from patent US9682999B2.

- protocol: In vivo pharmacokinetic study, dog
- test.settings: Dog
- Description: In vivo pharmacokinetic studies were conducted in mouse, rat, dog, or cynomolgus monkey to determine clearance, oral exposure and bioavailability (% F). […] Non-compartmental pharmacokinetic parameters were determined using Phoenix Winnonlin 6.1 (Pharsight, Mountain View, Calif.). Bioavailability of the oral formulation of each compound were calculated as the ratio of the oral dose normalized AUCinf to the intravenous dose normalized AUCinf. […]
observation.type: T 1/2 (H)
Answers are plain numbers, in H.

# annotated cases, reported T 1/2 shown
CNC(=O)c1c(-c2ccc(F)cc2)oc2cc(N(Cc3cc(F)c4c(c3)COB4O)S(C)(=O)=O)c(C3CC3)cc12 [A]	5.1
CNC(=O)c1c(-c2ccc(F)cc2)oc2cc(N(c3ccc(B(O)O)c(Cl)c3)S(C)(=O)=O)c(C3CC3)cc12 [Example 1]	8.7
CNC(=O)c1c(-c2ccc(F)cc2)oc2cc(N(Cc3ccc(B(O)O)c(F)c3)S(C)(=O)=O)c(C3CC3)cc12 [D]	4.5

As a next step, examine the compound that follows.
Retrieve T 1/2 measured for CNC(=O)c1c(-c2ccc(F)cc2)oc2cc(N(c3cc(Cl)c4c(c3)COB4O)S(C)(=O)=O)c(C3CC3)cc12 [Example 15] and print it.
6.9

---

Would you kindly list EC50 for each of these compounds?
- Tested on: sub-genomic HCV NS3-NS5B replicon genotype 1a C316Y (Huh-7 cells)
- protocol: Replicon luciferase cell based assay, genotype 1a C316Y
- test.settings: Hepatitis C virus, Huh-7, 48 h, read-out: EC50 1a 316Y

# annotated cases, reported EC50 shown
CNC(=O)c1c(-c2ccc(Cl)cc2)oc2cc(N(c3ccc(B(O)O)c(Cl)c3)S(C)(=O)=O)c(C3CC3)cc12 [Example 2]	1 to 10 nM
CNC(=O)c1c(-c2ccc(F)cc2)oc2cc(N(c3ccc(B(O)O)cc3F)S(C)(=O)=O)c(C3CC3)cc12 [Example 6]	> 1000 nM
CNC(=O)c1c(-c2ccc(F)cc2)oc2cc(N(c3ccc(B(O)O)c(S(C)(=O)=O)c3)S(C)(=O)=O)c(C3CC3)cc12 [Example 16]	11 to 200 nM
CNC(=O)c1c(-c2ccc(F)cc2)oc2cc(N(c3ccc(B4OC(C)(C)C(C)(C)O4)c(C)c3)S(C)(=O)=O)c(C3CC3)cc12 [Example 22]	200 to 1000 nM
CNC(=O)c1c(-c2ccc(F)cc2)oc2cc(N(c3ccc(OCB(O)O)cc3)S(C)(=O)=O)c(C3CC3)cc12 [Example 18]	11 to 200 nM

For every record below, what is its EC50?
1. CNC(=O)c1c(-c2ccc(F)cc2)oc2cc(N(c3ccc(CCB(O)O)c(Cl)c3)S(C)(=O)=O)c(C3CC3)cc12 [Example 23]
2. CNC(=O)c1c(-c2ccc(F)cc2)oc2cc(N(c3ccc(C4COB(O)C4)c(Cl)c3)S(C)(=O)=O)c(C3CC3)cc12 (centres unmarked) [Example 25]
3. CNC(=O)c1c(-c2ccc(F)cc2)oc2cc(N(c3ccc4c(c3)COB4O)S(C)(=O)=O)c(C3CC3)cc12 [Example 20]
4. CNC(=O)c1c(-c2ccc(F)cc2)oc2cc(N(c3cccc(CCB(O)O)c3)S(C)(=O)=O)c(C3CC3)cc12 [Example 26]

1. 11 to 200 nM
2. 11 to 200 nM
3. 11 to 200 nM
4. 200 to 1000 nM

For every record below, what is its EC50?
1. CS(=O)(=O)N(c1ccc(B(O)O)c(Cl)c1)c1cc2oc(-c3ccc(Cl)cc3)c(C(N)=O)c2cc1C1CC1 [Example 14]
2. CNC(=O)c1c(-c2ccc(Cl)cc2)oc2cc(N(c3ccc(B(O)O)c(C#N)c3)S(C)(=O)=O)c(C3CC3)cc12 [Example 21]
3. CNC(=O)c1c(-c2ccc(F)cc2)oc2cc(N(c3cc(Cl)c4c(c3)COB4O)S(C)(=O)=O)c(C3CC3)cc12 [Example 15]
4. CNC(=O)c1c(-c2ccc(Cl)cc2)oc2cc(N(c3ccc(B(O)O)c(F)c3)S(C)(=O)=O)c(C3CC3)cc12 [Example 7]
5. CNC(=O)c1c(-c2ccc(F)cc2)oc2cc(N(c3ccc(B(O)O)c(C(F)(F)F)c3)S(C)(=O)=O)c(C3CC3)cc12 [Example 10]

11 to 200 nM
1 to 10 nM
11 to 200 nM
11 to 200 nM
11 to 200 nM

---

Would you kindly list clearance for each of these compounds?
- protocol: In vivo pharmacokinetic study, mouse
- test.settings: blood, intravenous; Mouse (avg)
Numbers only, in mL/min/kg.

CNC(=O)c1c(-c2ccc(F)cc2)oc2cc(N(Cc3cc(F)c4c(c3)COB4O)S(C)(=O)=O)c(C3CC3)cc12 [A]	0.9

As a next step, examine the compound that follows.
Retrieve clearance measured for CNC(=O)c1c(-c2ccc(F)cc2)oc2cc(N(Cc3ccc(B(O)O)c(F)c3)S(C)(=O)=O)c(C3CC3)cc12 [D] and print it.
1.4

---

- protocol: In vivo pharmacokinetic study, mouse
- test.settings: mouse, blood, intravenous
Would you kindly list clearance for each of these molecules?
Numbers only, in mL/min/kg.

CNC(=O)c1c(-c2ccc(F)cc2)oc2cc(N(c3cc(Cl)c4c(c3)COB4O)S(C)(=O)=O)c(C3CC3)cc12 [Example 15]	0.7

As a next step, examine the molecule that follows.
Retrieve clearance measured for CNC(=O)c1c(-c2ccc(F)cc2)oc2cc(N(c3ccc(B(O)O)c(Cl)c3)S(C)(=O)=O)c(C3CC3)cc12 [Example 1] and print it.
0.9

---

- protocol: In vivo pharmacokinetic study, rat
- test.settings: Rat
T 1/2 less than 2 H is label 1; T 1/2 greater than or equal to 2 H is label 0.

CNC(=O)c1c(-c2ccc(F)cc2)oc2cc(N(Cc3ccc(B(O)O)c(Cl)c3)S(C)(=O)=O)c(C3CC3)cc12	label 1
CNC(=O)c1c(-c2ccc(F)cc2)oc2cc(N(c3ccc(B(O)O)c(Cl)c3)S(C)(=O)=O)c(C3CC3)cc12	label 0

For this compound, is T 1/2 lower than 2 H? "CNC(=O)c1c(-c2ccc(F)cc2)oc2cc(N(c3cc(Cl)c4c(c3)COB4O)S(C)(=O)=O)c(C3CC3)cc12"
label 0

For this compound, is T 1/2 lower than 2 H? "CNC(=O)c1c(-c2ccc(F)cc2)oc2cc(N(Cc3ccc(B(O)O)c(F)c3)S(C)(=O)=O)c(C3CC3)cc12"
label 0

For this compound, is T 1/2 lower than 2 H? "CNC(=O)c1c(-c2ccc(F)cc2)oc2cc(N(Cc3cc(F)c4c(c3)COB4O)S(C)(=O)=O)c(C3CC3)cc12"
label 1

For this compound, is T 1/2 lower than 2 H? "CNC(=O)c1c(-c2ccc(Cl)cc2)oc2cc(N(Cc3ccc(B(O)O)c(F)c3)S(C)(=O)=O)c(C3CC3)cc12"
label 1

---

- Test system: sub-genomic HCV NS3-NS5B replicon genotype 1b C316N (Huh-7 cells)
- protocol: Replicon luciferase cell based assay, genotype 1b C316N
- test.settings: read-out: EC50 1b 316N; Huh-7 genotype 1b C316N luciferase replicon, 48 hours
observation.type: EC50

Retrieve EC50 measured for CNC(=O)c1c(-c2ccc(F)cc2)oc2cc(N(c3ccc(C4CCB(O)O4)c(Cl)c3)S(C)(=O)=O)c(C3CC3)cc12 (single isomer, unassigned; enantiomer 2) and print it.
11 to 200 nM

---

Would you kindly list clearance for each of these molecules?
- protocol: In vivo pharmacokinetic study, dog
- test.settings: dog, blood, intravenous
One number for each entry, in mL/min/kg.

CNC(=O)c1c(-c2ccc(F)cc2)oc2cc(N(Cc3ccc(B(O)O)c(F)c3)S(C)(=O)=O)c(C3CC3)cc12	10.8
CNC(=O)c1c(-c2ccc(F)cc2)oc2cc(N(c3cc(Cl)c4c(c3)COB4O)S(C)(=O)=O)c(C3CC3)cc12	1.2
CNC(=O)c1c(-c2ccc(F)cc2)oc2cc(N(Cc3cc(F)c4c(c3)COB4O)S(C)(=O)=O)c(C3CC3)cc12	12.4

Retrieve clearance measured for "CNC(=O)c1c(-c2ccc(F)cc2)oc2cc(N(c3ccc(B(O)O)c(Cl)c3)S(C)(=O)=O)c(C3CC3)cc12" and print it.
2.3

---

- protocol: In vivo pharmacokinetic study, rat
- test.settings: rat, blood, oral
- Experimental: In vivo pharmacokinetic studies were conducted in mouse, rat, dog, or cynomolgus monkey to determine clearance, oral exposure and bioavailability (% F). […] Non-compartmental pharmacokinetic parameters were determined using Phoenix Winnonlin 6.1 (Pharsight, Mountain View, Calif.). Bioavailability of the oral formulation of each compound were calculated as the ratio of the oral dose normalized AUCinf to the intravenous dose normalized AUCinf. […]
observation.type: bioavailability (%)
Numbers only, in %.

# annotated cases, reported bioavailability shown
CNC(=O)c1c(-c2ccc(F)cc2)oc2cc(N(Cc3cc(F)c4c(c3)COB4O)S(C)(=O)=O)c(C3CC3)cc12	47
CNC(=O)c1c(-c2ccc(Cl)cc2)oc2cc(N(Cc3ccc(B(O)O)c(F)c3)S(C)(=O)=O)c(C3CC3)cc12	40
CNC(=O)c1c(-c2ccc(F)cc2)oc2cc(N(Cc3ccc(B(O)O)c(F)c3)S(C)(=O)=O)c(C3CC3)cc12	45

For every record below, what is its bioavailability?
1. CNC(=O)c1c(-c2ccc(F)cc2)oc2cc(N(c3ccc(B(O)O)c(Cl)c3)S(C)(=O)=O)c(C3CC3)cc12
2. CNC(=O)c1c(-c2ccc(F)cc2)oc2cc(N(Cc3ccc(B(O)O)c(Cl)c3)S(C)(=O)=O)c(C3CC3)cc12
3. CNC(=O)c1c(-c2ccc(F)cc2)oc2cc(N(c3cc(Cl)c4c(c3)COB4O)S(C)(=O)=O)c(C3CC3)cc12

23
23
43
